tested.on: HLA-A*02:03
protocol.details: IEDB peptide-MHC binding, purified MHC/competitive/radioactivity; filed as Kd, often an IC50 or EC50 that approximates it; bounds were set here for any values at or beyond the usual limits of such assays
condition: source organism: Dengue virus 1 Singapore/S275/1990
pKd: −log10 of the molar value.
reported.metric: pKd

* LLFKTSVGV | 8.04

====

tested.on: HLA-B*15:01
protocol.details: IEDB peptide-MHC binding, purified MHC/direct/fluorescence; filed as Kd, often an IC50 or EC50 that approximates it; bounds were set here for any values at or beyond the usual limits of such assays
condition: source organism: SARS-CoV1
pKd: −log10 of the molar value.
reported.metric: pKd

* KMKELSPRW | 5.92

====

tested.on: HLA-A*30:02
protocol.details: IEDB peptide-MHC binding, purified MHC/competitive/radioactivity; filed as Kd, often an IC50 or EC50 that approximates it; bounds were set here for any values at or beyond the usual limits of such assays
condition: source organism: Dengue virus 4 Philippines/H241/1956
Listing: Kd of selected sequences
reported.metric: Kd (nM)

- ESQMLIPKAY: 8.93
- QKATLTEGVY: 15.6

====

tested.on: HLA-B*27:05
protocol.details: IEDB peptide-MHC binding, purified MHC/competitive/fluorescence; filed as Kd, often an IC50 or EC50 that approximates it; bounds were set here for any values at or beyond the usual limits of such assays
condition: source organism: Bacillus anthracis str. A0488
reported.metric: Kd (nM)

* NRYGLPEKM | 17.5

====

tested.on: HLA-B*51:01
protocol.details: IEDB peptide-MHC binding, purified MHC/direct/fluorescence; filed as Kd, often an IC50 or EC50 that approximates it; bounds were set here for any values at or beyond the usual limits of such assays
condition: source organism: Baboon gamma-herpesvirus
reported.metric: Kd

* VPGSETMCY | ≥ 20 µM

====

tested.on: HLA-B*40:01
protocol.details: IEDB peptide-MHC binding, purified MHC/competitive/fluorescence; filed as Kd, often an IC50 or EC50 that approximates it; bounds were set here for any values at or beyond the usual limits of such assays
condition: source organism: Entamoeba histolytica HM-1:IMSS
reported.metric: Kd

• EVRKAIEFV = ≥ 5 µM

====

tested.on: HLA-A*02:01
protocol.details: IEDB peptide-MHC binding, purified MHC/competitive/radioactivity; filed as Kd, often an IC50 or EC50 that approximates it; bounds were set here for any values at or beyond the usual limits of such assays
condition: source organism: Dengue virus 3 Martinique/1243/1999
reported.metric: Kd (nM)

• YQLWTALISL = 18.8

====

tested.on: HLA-A*03:01
protocol.details: IEDB peptide-MHC binding, purified MHC/competitive/fluorescence; filed as Kd, often an IC50 or EC50 that approximates it; bounds were set here for any values at or beyond the usual limits of such assays
condition: source organism: Helicobacter pylori 26695
pKd: −log10 of the molar value.
reported.metric: pKd

* GIVCYNEEV | ≤ 4.70

====

tested.on: HLA-B*51:01
protocol.details: IEDB peptide-MHC binding, purified MHC/competitive/radioactivity; filed as Kd, often an IC50 or EC50 that approximates it; bounds were set here for any values at or beyond the usual limits of such assays
condition: source organism: Mammarenavirus brazilense
pKd: −log10 of the molar value.
reported.metric: pKd

• APFMSDLQF = ≤ 4.41

These data points were gathered from the Immune Epitope Database (IEDB).
